# Assay protocol: protein stability index of a GFP-peptide fusion (yeast GPS) (PSI 1-4); higher = more stable; sorted into four equal gates, so the index is relative within each strain
# Recorded conditions: ubr1∆

Polymer sequence: RSPEEIRRTFNIVNDFT [SKP1]
protein stability index: 2.12
//
Polymer sequence: DYLFHLLISLNILFSLW [YLR018C/POM34]
protein stability index: 1.21
//
Polymer sequence: CKEVGITAVHVKIRATG [RPS14A]
protein stability index: 1.89
//
Polymer sequence: KLWFQLSESLTKFFDDA [RPN9]
protein stability index: 3.17
//
Polymer sequence: KKMMNTLVHTRVKIANT [SSN2]
protein stability index: 2.78
//
Polymer sequence: VRKETYSSYIYKVLKQT [HTB2]
protein stability index: 3.12
//
Polymer sequence: NRQTLMFTATMTPVIEK [PRP28]
protein stability index: 2.44
//
Polymer sequence: AIKELNYNRIAKICALL [NUT1]
protein stability index: 2.32
//
Polymer sequence: YVEAQHKLVFVVRIKGI [RPL7A]
protein stability index: 1.21
//
Polymer sequence: QAEATEWAEENADNVEW [RPS0A]
protein stability index: 2.41
//
Polymer sequence: PDPNFENSIGYNNRKCW [PRP8]
protein stability index: 3.11
//
Polymer sequence: RNNFLAENSHTQPKATS [PUP1]
protein stability index: 3.13
//
Polymer sequence: MSTELTVQSERAFQKQP [RPS11A]
protein stability index: 2.75
//
Polymer sequence: VEQGYEDAFNFWFDKLV [YCG1]
protein stability index: 2.38
